Measured values drawn from PubChem BioAssay (NCI) for this set.

Catalogue of compounds with associated TGI
Test system: M19-MEL melanoma
Experiment: NCI tumour cell line growth inhibition, 48 h

compound: CCOC(=O)C1=C(C)N(NC(=O)c2ccccc2)C2(O)CCCC12C(=O)OCC (stereo unspecified)
subject of test: M19-MEL melanoma
TGI: > 100 µM
--
compound: Nc1ccc(C(=O)NN2C(=O)C(Cl)C2c2ccccc2O)cc1 (stereo unspecified)
subject of test: M19-MEL melanoma
TGI: > 100 µM
--
compound: CCOC(=O)C1C(c2ccc([N+](=O)[O-])cc2)NC(c2ccc([N+](=O)[O-])cc2)C(C(=O)OC)S1(=O)=O (stereo unspecified)
subject of test: M19-MEL melanoma
TGI: > 100 µM
--
compound: Cc1cc(C)n(-c2c(O)ccc(O)c2-n2nc(C)cc2C)n1
subject of test: M19-MEL melanoma
TGI: > 100 µM
--
compound: COC(=O)/C(=C/CC(N=C(c1ccccc1)c1ccccc1)C(=O)OC)N=C(c1ccccc1)c1ccccc1 (stereo unspecified)
subject of test: M19-MEL melanoma
TGI: > 100 µM

### Prompt # lookup: TGI of `O=C1c2ccccc2C(=O)c2nc(-c3ccccc3)c(-c3ccccc3)nc21`
### Response 2.02 µM

### Prompt # lookup: TGI of COc1cc(CCCC(O)COc2cccc3c2C2(O)CCCCCC32)cc(OC)c1 (stereo unspecified)
### Response 32.7 µM

### Prompt # lookup: TGI of CC1OC(O)CC(OC(=O)c2ccccc2)C1OC(=O)c1ccccc1 (stereo unspecified)
### Response 31.6 µM

### Prompt # lookup: TGI of `CSc1sc(=S)sc1SC`
### Response > 100 µM

### Prompt # lookup: TGI of `CSC(=N)N1N=C2c3ccccc3CC[C@@H]2[C@@H]1c1ccccc1`
### Response 29.4 µM

### Prompt # lookup: TGI of `Clc1ccc2nc(CCSCCc3nc4ccc(Cl)cc4[nH]3)[nH]c2c1`
### Response 27.4 µM

### Prompt # lookup: TGI of CN=S(=O)(C[C@]1(O)CC2OC1C1OC(C)(C)OC21)c1ccccc1 (stereo partly specified)
### Response > 100 µM

### Prompt # lookup: TGI of `CC1C2=CC=C(O2)C(C)(C)C2=CC=C(O2)C(C)(C)C2=CC=C(O2)C(C)(C)C2=CC=C1O2`
### Response > 100 µM

### Prompt # lookup: TGI of CNC1C(O)CC(OC2C/C=C(\C)C/C(C)=C/C=C/CCC(C)CNC(=O)/C=C/C=C/C2C)OC1C (stereo unspecified)
### Response 1.68 µM

### Prompt # lookup: TGI of `O=C1c2ccccc2C(=O)c2c(O)c(O)cc(O)c21`
### Response > 100 µM

### Prompt # lookup: TGI of `COc1ccc2c(c1)[n+]([O-])c(-c1nc3ccccc3s1)c(N)[n+]2[O-]`
### Response > 100 µM

### Prompt # lookup: TGI of `Cc1ccc(S(=O)(=O)N/N=C(\C(=O)Nc2cccc([N+](=O)[O-])c2)c2nc3ccc([N+](=O)[O-])cc3[nH]c2=O)cc1`
### Response > 100 µM

### Prompt # lookup: TGI of `CN(CCO)c1nc2c(c(=O)[nH]1)CNCC2`
### Response > 100 µM

### Prompt # lookup: TGI of `COc1cc(-c2c(C)c(C)nc(OC)c2C#N)cc(OC)c1OC`
### Response > 100 µM

### Prompt # lookup: TGI of `CNC(=O)CN(CC(N)=O)C(=O)NC`
### Response > 100 µM

### Prompt # lookup: TGI of `CCCCCCCCCCCCNC1(C)CNCCCNCCNCCCNC1`
### Response 3.13 µM

---

Test system: HOP-92 NSCLC
Assay: NCI tumour cell line growth inhibition, 48 h; in the data active = GI50 below about 0.43 µM; inactive = the rest
In this exercise, the only acceptable responses are True for active, False for inactive

### Prompt Would you mind telling me which call this test gave `CO[C@H]1CC[C@@]2(C)C(=CC[C@H]3[C@@H]4C[C@H](O)C[C@@]4(C)CC[C@@H]32)C1` ?
### Response False

### Prompt Would you mind telling me which call this test gave `COc1cc(-c2nc3ccccc3s2)ccc1OCc1nc2n(n1)S(=O)(=O)c1ccccc1N2C` ?
### Response False

### Prompt Would you mind telling me which call this test gave CC(C)=CCC/C(C)=C/CC/C(=C/COP(=O)(OCc1ccc([N+](=O)[O-])o1)N(C)CCCCCl)C(C)(C)C (stereo unspecified) ?
### Response False

### Prompt Would you mind telling me which call this test gave `CCOC(=O)c1c(Cl)c2c(n1Cc1cc(OC)cc(OC)c1)-c1oncc1CCC2` ?
### Response True

### Prompt Would you mind telling me which call this test gave `CC/C(=C(\CC)c1ccc(OCCN(CC)CC)cc1)c1ccc(OCCN(CC)CC)cc1` ?
### Response False

### Prompt Would you mind telling me which call this test gave CC1(C)C2CCC13C(=O)C1OC3(C2)C2C(=O)c3c(O)ccc(O)c3C(=O)C12 (stereo unspecified) ?
### Response False

### Prompt Would you mind telling me which call this test gave `Cc1ccc(C(=O)NC2CCCCC2)cc1-c1ccc(C(=O)NCC2CC2)cc1` ?
### Response False

### Prompt Would you mind telling me which call this test gave CC[C@H](C)C(=O)O[C@H]1CCC=C2C=C[C@H](C)C(CCC3C[C@@H](O)CC(=O)O3)[C@H]21 (stereo partly specified) ?
### Response True

---

Catalogue of compounds with associated TGI
Test system: KM20L2 colon
Assay: NCI tumour cell line growth inhibition, 48 h
Expressed in µM, but write only the number.

These recorded examples may help you get a feel for the data.
compound: COC(=O)C1=CC2OC1(C)C1(CC1)C2=O (centres undefined)
TGI / µM: 36.6
//
compound: COc1cc(CCCC(O)COc2cccc3c2C2(O)CCCCCC32)cc(OC)c1 (centres undefined)
TGI / µM: 28.1
//
compound: O=C(CC1(O)C(=O)Nc2c(Cl)cc(Cl)cc21)c1ccc2ccccc2c1 (centres undefined)
TGI / µM: 11.4

The record that follows has no TGI shown yet.
### Prompt # lookup: TGI of `COc1ccc(/C(Cl)=C(\C=O)c2ccc(Cl)c(Cl)c2)cc1OC`
### Response 18.8

---

Catalogue of molecules with associated GI50
Test system: SNB-75 CNS
Assay: NCI tumour cell line growth inhibition, 48 h

These recorded examples may help you get a feel for the data.
structure smiles string: COc1ccc(Nc2ccnc(NCCCNc3ccnc4cc(Cl)ccc34)n2)cc1
GI50: 903 nM

structure smiles string: COc1ccc(F)cc1C(=O)c1cnc(NC2CCN(S(C)(=O)=O)CC2)nc1N
GI50: 3970 nM

The record that follows has no GI50 shown yet.
### Prompt # lookup: GI50 of `COC(=O)c1c2c(c(C)[n+]([O-])c1C)C(=O)C(NCc1ccc(F)c(F)c1)=CC2=O`
### Response 2150 nM

---

Test system: MALME-3M melanoma
Assay: NCI tumour cell line growth inhibition, 48 h
Where a SMILES comes first, the peptide text is derived from it. The star is where a group is joined. OBn = c1ccc(CO*)cc1
reported metric: TGI

These recorded examples may help you get a feel for the data.
compound: CCOC(=O)Oc1cc2c(ccn2C)c2c1c1ccccc1n2C(=O)OCC
TGI: > 100 µM
--
compound: CNC(=S)NNC1=NCCCCN1
TGI: > 100 µM
--
compound: CC(C)(C)C(=O)Nc1cccc(-c2ccc[nH]2)n1
TGI: > 100 µM
--
compound: Cc1ccc(S(=O)(=O)N/N=C(\C(=O)Nc2cccc([N+](=O)[O-])c2)c2nc3ccc([N+](=O)[O-])cc3[nH]c2=O)cc1
TGI: > 100 µM

The record that follows has no TGI shown yet.
### Prompt # lookup: TGI of NC(CCC(=O)OCc1ccccc1)C(=O)NC(CCC(=O)OCc1ccccc1)C(=O)O (stereo not given) (H-Glu(OBn)-Glu(OBn)-OH; configuration not given here)
### Response > 100 µM

---

System: HCT-116 colon
In this exercise, the only acceptable responses are active, inactive

molecule: COc1cc(-c2nc3ccccc3s2)ccc1OCc1nc2n(n1)S(=O)(=O)c1ccccc1N2C
assigned category: inactive
--
molecule: COc1cc2c(cc1OC)[C@@]1(C)C(=O)c3cc4c(cc3[C@H]1N(C)C2=O)OCO4
assigned category: inactive
--
molecule: O=C1/C(=C/C(Cl)=C/c2ccccc2)SC(=S)N1CCc1ccc(O)cc1
assigned category: inactive
--
molecule: CCCC(=O)NNc1[nH]c(-c2ccc(OC)cc2)cc1C(=O)OCC
assigned category: inactive

### Prompt Would you mind telling me which call this test gave [N-]=[N+]=CC(=O)OCC(N)C(=O)O (stereo not given) ?
### Response inactive

---

Test system: PC-3 prostate
Assay: NCI tumour cell line growth inhibition, 48 h; in the data active = GI50 below about 0.43 µM; inactive = the rest
In this exercise, the only acceptable responses are class 1 (active), class 0 (inactive)

Worked examples, 4 molecules total:
molecule: [N-]=[N+]=CC(=O)OCC(N)C(=O)O (stereo not given)
subject of test: PC-3 prostate
assigned category: class 0
//
molecule: CC/C(=C(\CC)c1ccc(OCCN(CC)CC)cc1)c1ccc(OCCN(CC)CC)cc1
subject of test: PC-3 prostate
assigned category: class 0
//
molecule: C#C[C@@]1(O)[C@@H](CO)O[C@@H](n2cc(F)c3c(N)ncnc32)[C@@H]1O
subject of test: PC-3 prostate
assigned category: class 1
//
molecule: O=C1/C(=C/C(Cl)=C/c2ccccc2)SC(=S)N1CCc1ccc(O)cc1
subject of test: PC-3 prostate
assigned category: class 0

Continue with the molecule presented below.
### Prompt Would you mind telling me which call this test gave `CN1CCN(Cc2ccc(NC(=O)c3cncc(C#Cc4c(N)ncc5cc(F)ccc45)c3)cc2C(F)(F)F)CC1` ?
### Response class 0
